Assay: physchem
Conditions: pH 6.8
Description: Dissociation constant, pKa of the compound at pH 6.8
List of pKa values.
Reply briefly: the number, and no unit.

The compound listed as Cc1c(N(C)C)c(=O)n(-c2ccccc2)n1C [AMINOPYRINE] shows pKa equal to 1.8

The compound listed as CCC(=O)c1ccc(O)cc1 [PAROXYPROPIONE] shows pKa equal to 1

The compound listed as c1ccc(CC2=NCCN2)cc1 [TOLAZOLINE] shows pKa equal to 3.5

The compound listed as CCCC(C)C1(CC)C(=O)NC(=S)NC1=O (centres undefined) [THIOPENTAL] shows pKa equal to 0.8

The compound listed as Nc1cccc([N+](=O)[O-])c1 [3-NITROANILINE] shows pKa equal to 4.3

FYI, the data here is from ChEMBL document CHEMBL3272293.
